# System: Bacillus subtilis
# Test description: Antibacterial activity against Bacillus subtilis 168 incubated for 48 hrs and measured by broth microdilution assay
# Format: functional
Measured endpoint: MIC
Form entry: enter the amount, then its unit.

# annotated cases, reported MIC shown
* NCCCCN1C(=O)N(CCCCN)C(=O)C(Cc2c(Br)cc(Br)cc2Br)(Cc2c(Br)cc(Br)cc2Br)C1=O.O=C(O)C(F)(F)F.O=C(O)C(F)(F)F | 2 µg/mL
* CC(C)(C)c1ccc(CC2(Cc3cc(Br)cc(Br)c3)C(=O)N(CCCCNC(=N)N)C(=O)N(CCCCNC(=N)N)C2=O)cc1.O=C(O)C(F)(F)F.O=C(O)C(F)(F)F (stereo unspecified) | 2 µg/mL
* NCCCCN1C(=O)N(CCCCN)C(=O)C(Cc2cc(Br)cc(Br)c2)(Cc2ccc(Br)c3ccccc23)C1=O.O=C(O)C(F)(F)F.O=C(O)C(F)(F)F | 4 µg/mL
* N=C(N)NCCN1C(=O)N(CCNC(=N)N)C(=O)C(Cc2cc(Br)cc(Br)c2)(Cc2cc(Br)cc(Br)c2)C1=O.O=C(O)C(F)(F)F.O=C(O)C(F)(F)F | 2 µg/mL

Ask | What measured MIC goes with N=C(N)N[C@H]1CC[C@@H](N2C(=O)N([C@H]3CC[C@@H](NC(=N)N)CC3)C(=O)C(Cc3cc(Br)cc(Br)c3)(Cc3cc(Br)cc(Br)c3)C2=O)CC1.O=C(O)C(F)(F)F.O=C(O)C(F)(F)F ?
Reply | 1 µg/mL

Ask | What measured MIC goes with NCCCN1C(=O)N(CCCN)C(=O)C(Cc2ccc(Br)c3ccccc23)(Cc2ccc(Br)c3ccccc23)C1=O.O=C(O)C(F)(F)F.O=C(O)C(F)(F)F ?
Reply | 2 µg/mL

* * *

# Test description: Hemolytic activity in human RBC measured after 1 hr by microplate reader method
# Format: toxicity, cell-based, Erythrocyte
# Recorded conditions: human, human red blood cells (erythrocytes)
This section presents compounds with their documented EC50 at 1 h values.
Value expressed in µg/mL; do not type the unit.

* N=C(N)NCCCN1C(=O)N(CCCNC(=N)N)C(=O)C(Cc2ccc(Br)c3ccccc23)(Cc2ccc(Br)c3ccccc23)C1=O.O=C(O)C(F)(F)F.O=C(O)C(F)(F)F | 61
* NCCCCN1C(=O)N(CCCCN)C(=O)C(Cc2c(Br)cc(Br)cc2Br)(Cc2c(Br)cc(Br)cc2Br)C1=O.O=C(O)C(F)(F)F.O=C(O)C(F)(F)F | 30
* N=C(N)NCCCCCCN1C(=O)N(CCCCCCNC(=N)N)C(=O)C(Cc2cc(Br)cc(Br)c2)(Cc2cc(Br)cc(Br)c2)C1=O.O=C(O)C(F)(F)F.O=C(O)C(F)(F)F | 57
* NCCCCN1C(=O)N(CCCCN)C(=O)C(Cc2cc(Br)cc(Br)c2)(Cc2cc(Br)cc(Br)c2)C1=O.O=C(O)C(F)(F)F.O=C(O)C(F)(F)F | 79

Lab note: next compound to report on.
Ask | What measured EC50 at 1 h goes with NCCN1C(=O)N(CCN)C(=O)C(Cc2cc(Br)cc(Br)c2)(Cc2cc(Br)cc(Br)c2)C1=O.O=C(O)C(F)(F)F.O=C(O)C(F)(F)F ?
Reply | 39

* * *

# Test description: Selectivity index, ratio HC50 for hemolytic activity in human RBC to MIC for antibacterial activity against Bacillus subtilis 168
# Format: toxicity
# Recorded conditions: human red blood cells (erythrocytes)
Measured endpoint: selectivity ratio
# print the numeric value only

# annotated cases, reported selectivity ratio shown
* N=C(N)NCCCCN1C(=O)N(CCCCNC(=N)N)C(=O)C(Cc2cc(Br)cc(Br)c2)(Cc2ccc3ccccc3n2)C1=O.O=C(O)C(F)(F)F.O=C(O)C(F)(F)F (stereo unspecified) | 113
* N=C(N)NCCCCN1C(=O)N(CCCCNC(=N)N)C(=O)C(Cc2ccc(C(F)(F)F)cc2)(Cc2cc(Br)cc(Br)c2)C1=O.O=C(O)C(F)(F)F.O=C(O)C(F)(F)F (stereo unspecified) | 40
* NCCCCN1C(=O)N(CCCCN)C(=O)C(Cc2cc(Br)cc(Br)c2)(Cc2cc(Br)cc(Br)c2)C1=O.O=C(O)C(F)(F)F.O=C(O)C(F)(F)F | 40

Lab note: next compound to report on.
Ask | What measured selectivity ratio goes with NCCCN1C(=O)N(CCCN)C(=O)C(Cc2ccc(Br)c(Cl)c2)(Cc2ccc(Br)c(Cl)c2)C1=O.O=C(O)C(F)(F)F.O=C(O)C(F)(F)F ?
Reply | 81
